These measurements were taken from patent US8653263B2.

- Study system: human orexin-2 receptor (Homo sapiens (Human), UniProt O43614)
- Sequence (O43614 whole entry): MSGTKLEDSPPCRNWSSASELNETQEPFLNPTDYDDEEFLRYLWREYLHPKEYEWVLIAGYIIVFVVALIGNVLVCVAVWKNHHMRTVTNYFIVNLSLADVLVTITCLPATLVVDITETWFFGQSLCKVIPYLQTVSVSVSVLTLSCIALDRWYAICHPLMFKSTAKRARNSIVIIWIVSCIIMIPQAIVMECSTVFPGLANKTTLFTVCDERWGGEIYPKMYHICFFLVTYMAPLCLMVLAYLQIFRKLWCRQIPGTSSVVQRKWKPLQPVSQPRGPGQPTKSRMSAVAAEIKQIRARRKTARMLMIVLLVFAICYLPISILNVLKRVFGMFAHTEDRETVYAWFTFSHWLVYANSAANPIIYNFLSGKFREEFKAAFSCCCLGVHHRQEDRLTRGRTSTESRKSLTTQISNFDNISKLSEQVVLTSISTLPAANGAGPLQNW
- Protocol notes: Human orexin 2 receptor radioligand binding ([3H]-EMPA competition)
- Assay setup: HEK293 cells stably expressing human orexin-2 receptor; [3H]-EMPA 5 nM final; apparent Ki=IC50/(1+C/Kd), Kd=2 nM; read-out: OR 2 Ki
pKi: −log10 of the molar value.
# pKi >= 7 gives criterion met, anything below gives criterion not met

compound="Cc1nc(N2CC3CN(C(=O)c4ccccc4-n4nccn4)CC3C2)ncc1F (stereo not drawn)" classification="criterion met"
compound="Cc1cnc(C)c(N2CC3CN(C(=O)c4ccccc4-c4ncn[nH]4)CC3C2)n1 (stereo not drawn)" classification="criterion met"
compound="Cc1cc(C)nc(N2CC3CN(C(=O)c4sccc4-n4cccc4)CC3C2)n1 (stereo not drawn)" classification="criterion not met"
compound="Cc1cc(C)nc(N2CC3CN(C(=O)c4ccccc4F)CC3C2)n1 (stereo not drawn)" classification="criterion not met"
compound="O=C(c1ccccc1-n1nccn1)N1CC2CN(c3cc(C(F)(F)F)nc(N4CCCC4)n3)CC2C1 (stereo not drawn)" classification="criterion not met"
compound="O=C(c1ccccc1Br)N1CC2CN(c3cnc4ccccc4n3)CC2C1 (stereo not drawn)" classification="criterion not met"
compound="O=C(c1cc(F)ccc1-c1ncccn1)N1CC2CN(c3cnc4ccccc4n3)CC2C1 (stereo not drawn)" classification="criterion met"
compound="O=C(c1ccccc1-c1ccccc1)N1CC2CN(c3nc4ccccc4s3)CC2C1 (stereo not drawn)" classification="criterion not met"
compound="COc1cc(N2CC3CN(C(=O)c4ccc(F)cc4-n4nccn4)CC3C2)nc(N(C)C)n1 (stereo not drawn)" classification="criterion met"
compound="Cc1ccnc(-c2c(F)cccc2C(=O)N2CC3CN(c4nc(C)cc(C)n4)CC3C2)c1 (stereo not drawn)" classification="criterion met"
compound="O=C(c1cccc(F)c1-c1ncccn1)N1CC2CN(c3cnc4cc(F)c(F)cc4n3)CC2C1 (stereo not drawn)" classification="criterion met"
compound="Cc1cnc(C)c(N2CC3CN(C(=O)c4c(F)cccc4-n4nccn4)CC3C2)n1 (stereo not drawn)" classification="criterion met"
compound="COc1cc2ccccc2cc1C(=O)N1CC2CN(c3nc(C)cc(C)n3)CC2C1 (stereo not drawn)" classification="criterion not met"
compound="Cc1ccc(-n2nccn2)c(C(=O)N2CC3CN(c4nc(C)cnc4C)CC3C2)c1 (stereo not drawn)" classification="criterion met"
compound="O=C(c1ccccc1-c1ccc(C(F)(F)F)cc1)N1CC2CN(c3nccc(-c4ccccc4)n3)CC2C1 (stereo not drawn)" classification="criterion not met"
compound="Cc1cc(N2CC3CN(C(=O)c4ccc(F)cc4-n4nccn4)CC3C2)nc(C(F)(F)F)n1 (stereo not drawn)" classification="criterion met"
compound="Cc1nc2ccccc2nc1N1CC2CN(C(=O)c3ccccc3-c3nnc[nH]3)CC2C1 (stereo not drawn)" classification="criterion not met"
compound="Cc1cc(C)nc(N2CC3CN(C(=O)c4cccc5c4OCCCO5)CC3C2)n1 (stereo not drawn)" classification="criterion not met"
compound="Cc1cc(C)nc(N2CC3CN(C(=O)c4ccccc4-c4nc(C)no4)CC3C2)n1 (stereo not drawn)" classification="criterion met"
compound="COc1ccc(C(=O)N2CC3CN(c4nccc(-c5ccccc5)n4)CC3C2)c(OC)c1 (stereo not drawn)" classification="criterion not met"
